test: clinical; assay type: in vivo, CF patients; conditions: human, serum, inhaled or intranasal, 300 mg, Serum Tobramycin, Sidestream, 1 hour after aerosol; 300 mg in 5 ml 1/4 NS; single subjects 001-005 in order
PROPERTY_LABEL: concentration at 1 h (ng/mL)

>  <QUERY_SMILES>
NC[C@H]1O[C@H](O[C@H]2[C@H](O)[C@@H](O[C@H]3O[C@H](CO)[C@@H](O)[C@H](N)[C@H]3O)[C@H](N)C[C@@H]2N)[C@H](N)C[C@@H]1O

>  <READING>
200

$$$$

---

Assay: clinical
Assay type: in vivo, CF patients
Conditions: human, sputum, inhaled or intranasal, 300 mg, 300 mg in 5 ml of 60 mg/ml in 1/4 NS; read-out: sputum concentration achieved (target concentration)
Description: The doses were separated by at least 2 days and not more than 5 days.

>  <QUERY_SMILES>
NC[C@H]1O[C@H](O[C@H]2[C@H](O)[C@@H](O[C@H]3O[C@H](CO)[C@@H](O)[C@H](N)[C@H]3O)[C@H](N)C[C@@H]2N)[C@H](N)C[C@@H]1O

>  <concentration at 10 min>
> 128000 ng/g

$$$$

// data source = patent US5508269A
